# Study System: humanen CGRP-Rezeptor (Homo sapiens, UniProt O60894+Q16602)
# Construct: endogenous in cells
# Sequence (Q16602 23-461): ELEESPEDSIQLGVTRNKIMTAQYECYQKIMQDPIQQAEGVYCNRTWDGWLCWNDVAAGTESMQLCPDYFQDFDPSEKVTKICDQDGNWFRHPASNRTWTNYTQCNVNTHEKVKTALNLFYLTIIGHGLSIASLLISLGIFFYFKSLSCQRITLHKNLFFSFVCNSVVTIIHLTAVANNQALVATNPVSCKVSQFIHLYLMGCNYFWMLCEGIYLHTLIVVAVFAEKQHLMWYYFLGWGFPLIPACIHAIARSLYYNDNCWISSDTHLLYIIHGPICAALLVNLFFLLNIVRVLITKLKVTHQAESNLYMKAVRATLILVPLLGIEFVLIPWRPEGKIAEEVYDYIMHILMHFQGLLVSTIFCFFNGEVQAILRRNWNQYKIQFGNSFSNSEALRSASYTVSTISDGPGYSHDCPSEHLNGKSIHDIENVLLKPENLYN
# Sequence (O60894 27-148): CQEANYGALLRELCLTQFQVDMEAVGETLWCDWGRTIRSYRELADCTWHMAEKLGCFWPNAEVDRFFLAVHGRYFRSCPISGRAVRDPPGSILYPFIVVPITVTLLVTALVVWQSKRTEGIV
# Assay Details: Binding studies with SK-N-MC cell membranes, displacement of 125I-Iodotyrosyl-CGRP
# Reported Conditions: SK-N-MC membrane homogenate, 50 pM 125I-Iodotyrosyl-CGRP, 180 min, room temperature
Listing of recorded Ki by entry.
Give the quantity in µM, number only.

Please review the entries below; each comes with its answer.
{"columns": ["Compound", "U", "Value Measured"],
 "data": [
  ["Cn1cc(C(=O)c2cc(N3CCC4(CC3)NC(=O)Nc3ccccc34)ncn2)c2ccccc21", "µM", 0.081],
  ["Cn1cc(C(=O)c2cc(Nc3ccc4c(c3)CC3(C4)C(=O)Nc4ncccc43)ncn2)c2ccccc21 (stereo not drawn)", "µM", 0.089]
]}

Could you now consider this next compound?
# input Bench note: what Ki did `Cn1cc(C(=O)c2cc(N3CCC4(CC3)OC(=O)Nc3ccccc34)ncn2)c2ccccc21` show?
# output 0.204
